Tested on: RXF 393
Assay: NCI tumour cell line growth inhibition, 48 h
Activity calls are given as the source filed them. Cut-off read from the data, not from the text of the source: active = GI50 up to about 1.1 µM and inactive = higher.
Just give me one of these, please: active, inactive

Worked examples follow.
C=C1Cc2cc(OC)c(OC)c(OC)c2-c2ccc(SC)c(=O)cc21; active
O=P1(Oc2ccccc2)NCc2ncccc2O1 (stereo not given); inactive

Qu. # outcome recorded in this test, key = CC(=O)CC1CCC(=O)CCC(=O)OC(CC(C)=O)CCC(=O)CCC(=O)O1 (stereo not given)
Ans. inactive

Qu. Could you please tell me the result logged for `O=[N+]([O-])c1ccc2c(c1)n1c(N3CCCC3)[n+]3ccccc3c1c1c3ccccn3c(N3CCCC3)[n+]21.[O-][Cl+3]([O-])([O-])[O-].[O-][Cl+3]([O-])([O-])[O-]` in this assay?
Ans. inactive

Qu. Fill in: this test's call for CC(=O)NCC1OC2COC(c3ccccc3)OC2C2N=C(c3ccccc3)OC12 (stereo not given) is ___
Ans. inactive

---

System: RXF 393
Experiment: NCI tumour cell line growth inhibition, 48 h
Activity calls are given as the source filed them. Rule as the data show it: active = GI50 up to about 1.1 µM and inactive = higher.
A correct response names exactly one class from active, inactive

Sample answers from the record:
COc1ccc2c3c([nH]c2c1[N+](=O)[O-])C(C)=NCC3; inactive
CC(C)(C)C(=O)C1CC(=O)c2ccccc2C1=O (centres undefined); inactive

Qu. I would be grateful if you could indicate the recorded call for `C/C(=N\NC(=S)NC(C)(C)C)c1nc2cccnc2[nH]1` .
Ans. inactive

Qu. In this assay, the call recorded for CC1=NN(c2cccc(Cl)c2)C2(C1=Cc1ccc(N(C)C)cc1)C(Cl)C(=O)N2c1nc2ccccc2s1 (centres undefined) was what?
Ans. inactive

Qu. Check the results log: what was the call for `CNC(=O)OCc1c(COC(=O)NC)c(-c2ccc(-c3ccccc3)cc2)n(C)c1C` ?
Ans. active

Qu. Hello, I am checking results. What call was entered for `Cc1cc(C)nc(NS(=O)(=O)c2ccc(NNc3c4ccccc4nc4c(C(=O)Nc5ccc(S(=O)(=O)Nc6cc(C)on6)cc5)cccc34)cc2)n1` ?
Ans. inactive

Qu. Per the records of this test, what outcome belongs to `CCOC(=O)CSc1nc(-c2ccc(Cl)cc2)c(C#N)c(=O)[nH]1` ?
Ans. inactive

Qu. Could you kindly confirm the outcome this assay logged for `CCOC(=O)NN(C(=O)OCC)C(C(=O)C1=CCCCC1)N(NC(=O)OCC)C(=O)OCC` ?
Ans. inactive

Qu. Hey, what did the test say about CC1(c2sccc2Cl)CC(c2sccc2Cl)=C(C#N)C(=C(C#N)C#N)N1 (centres undefined) ?
Ans. inactive

---

Tested on: MDA-N
Test: NCI tumour cell line growth inhibition, 48 h
Activity calls are given as the source filed them. Rule as the data show it: active = GI50 up to about 1.1 µM and inactive = higher.
Log the outcome using a class from active, inactive

Qu. What outcome does the record of this test show for C=C1C(=O)O[C@@H]2C[C@]3(C)CC[C@]4(C)[C@H](CC[C@@H]5[C@@]6(C)CCC(=O)C(C)(C)[C@@H]6CC[C@]54C)[C@H]3[C@H]12 [OCHRACEOLIDE A] ?
Ans. inactive

Qu. State the result this test recorded for `CC(=O)O[C@H]1C(=O)[C@@]2(C)[C@H]([C@H](OC(=O)c3cccc(C(F)(F)F)c3)[C@]3(O)C[C@H](OC(=O)[C@H](O)[C@@H](NC(=O)c4ccccc4)c4ccccc4)C(C)=C1C3(C)C)[C@]1(OC(C)=O)CO[C@@H]1C[C@@H]2O` .
Ans. active

Qu. Recorded test outcome, item `COc1ccc(-c2nc3cc(F)ccc3s2)cc1O`
Ans. inactive

---

// reported GI50 per item
Test system: T47D
Test: NCI tumour cell line growth inhibition, 48 h
Activity calls are given as the source filed them. Rule as the data show it: active = GI50 up to about 1.1 µM and inactive = higher.

C/C(=N\Nc1ccc([N+](=O)[O-])cc1[N+](=O)[O-])c1ccc2ccccc2n1; > 100 µM (inactive)
COCCOC(=O)c1c(C)[n+]([O-])c2cc(Cl)c(Cl)cc2[n+]1[O-]; 4.68 µM (inactive)
CN(CCc1ccc(Cl)c(Cl)c1)[C@H]1CCCC[C@H]1N1CCCC1; > 100 µM (inactive)
c1ccc(CNc2nncc3[nH]cnc23)cc1; > 100 µM (inactive)

Moving on to the next compound.
Item: O=c1[nH]c(=O)n(C2CC(O)C(CO)O2)c2nc3cc4ccccc4cc3nc12 (stereo not given) | GI50: > 100 µM (inactive)

---

System: A498
Test: NCI tumour cell line growth inhibition, 48 h
Calls of active or inactive are those of the source. No stated cut-off is given here; in the data, active = GI50 up to about 1.1 µM and inactive = higher.
// reported GI50 for each item listed

Below, each entry is followed by its recorded GI50 result.
CCOC(=O)c1cn(CC)c(=O)n2c1nc1ccccc12; 32.4 µM (inactive)
Cc1nn(-c2ccccc2)c2nc3c(c(C)nn3-c3ccccc3)c(-c3ccccc3Br)c12; > 100 µM (inactive)
N#C/C(=C\NC(=S)Nc1ccc(S(=O)(=O)Nc2ccccn2)cc1)C(N)=O; > 100 µM (inactive)

Reported GI50 for `CN(CCc1ccc(Cl)c(Cl)c1)[C@H]1CCCC[C@H]1N1CCCC1` was > 100 µM (inactive)

GET /value?item= `CC(C)(C)NCc1cc(Nc2ccnc3cc(Cl)ccc23)cc(-c2ccc(Cl)cc2)c1O` &field=GI50 returns 2.94 µM (inactive)

---

Reported GI50 values follow for various molecules
System: NCI-H522
Test: NCI tumour cell line growth inhibition, 48 h
The source made the active and inactive calls. Cut-off read from the data, not from the text of the source: active = GI50 up to about 1.1 µM and inactive = higher.

C[n+]1c(-c2ccc(/C=N/Nc3ccnc(N/N=C/c4ccc(-c5cn6ccsc6[n+]5C)cc4)n3)cc2)cn2ccsc21; 92.7 µM (inactive)
N#C/C(=C\NC(=S)Nc1ccc(S(=O)(=O)Nc2ccccn2)cc1)C(N)=O; > 100 µM (inactive)
CC(C)(C)NCc1cc(Nc2ccnc3cc(Cl)ccc23)cc(-c2ccc(Cl)cc2)c1O; 3.65 µM (inactive)
CCCCCCCCCCCC(=O)OCC1OC(n2cc(F)c(=O)[nH]c2=O)C(NC(=O)OCc2ccccc2)C(O)C1O (stereo unspecified); 14.5 µM (inactive)
COc1cccc2[s+]snc12; > 10 µM (inactive)
c1ccc(CNc2nncc3[nH]cnc23)cc1; > 100 µM (inactive)
Nc1nc(N)c(N=O)c(OCC2CCCCC2)n1; 5.96 µM (inactive)
CCOC(=O)C1=C(C)N(c2ccc(OC)cc2)C2(O)C=CC(O)=C3C(=O)c4ccccc4C(=O)C312 (stereo unspecified); 2.57 µM (inactive)
N#CCCc1nc2ccc(Br)cc2c(=O)n1CCO; > 100 µM (inactive)
CC1(C)C2CCC1(C)[C@H](n1c(=O)n([C@@H]3CC4CCC3(C)C4(C)C)c(=O)n([C@@H]3CC4CCC3(C)C4(C)C)c1=O)C2; 37.4 µM (inactive)

The reported GI50 of the molecule `Cn1c(-c2cccs2)cc(-c2cccs2)c1-c1ccco1` was 21.2 µM (inactive)

---

# reported GI50; entries follow
Tested on: 786-0
Assay: NCI tumour cell line growth inhibition, 48 h
Calls of active or inactive are those of the source. Rule as the data show it: active = GI50 up to about 1.1 µM and inactive = higher.

O=C1CCCc2cc3c(cc21)CC1(C3)Cc2cc3c(cc2C1)C(=O)CCC3; 2.58 µM (inactive)
O=C1OC(CCCN2CCCCC2)(c2ccccc2)CC12CCCC2 (stereo not given); > 100 µM (inactive)
CC1=C(/C(C)=N/NS(=O)(=O)c2ccc(C)cc2)Sc2ccccc2N1; > 100 µM (inactive)

GI50 in this record for O=C(Cc1ccccc1[N+](=O)[O-])C(CO)c1ccccc1[N+](=O)[O-] (stereo not given) : > 100 µM (inactive)

The recorded GI50 for entry `N#CCCc1nc2ccc(Br)cc2c(=O)n1CCO` equals > 100 µM (inactive)

# GI50 of `COc1ccc(/N=N/c2c(O)ccc3ccccc23)cc1` = 61.8 µM (inactive)

GI50 reported for this molecule `Cc1cccc(C(=O)O)c1C(=O)c1cccc2ccccc12` : > 100 µM (inactive)

response.value for O=C(CN(Cc1ccccc1)Cc1ccccc1)N1CCc2c([nH]c3ccccc23)C1c1cccnc1 (stereo not given) (field: GI50) = 5.87 µM (inactive)

Lookup result for `O=C(Nc1cc2c(=O)[nH]c3ccccc3c2oc1=O)c1cnccn1` ; measured GI50: > 100 µM (inactive)

# molecule CCCCCCCCCCCC(=O)OCC1OC(n2cc(F)c(=O)[nH]c2=O)C(NC(=O)OCc2ccccc2)C(O)C1O (stereo not given) ; its GI50 = 24 µM (inactive)

---

System: HOP-18
Assay: NCI tumour cell line growth inhibition, 48 h
The source made the active and inactive calls. Cut-off read from the data, not from the text of the source: active = GI50 up to about 1.1 µM and inactive = higher.
Log the outcome using a class from active, inactive

Answered cases to consult:
C/C(=N/NC(=O)C[N+](C)(C)C)C(CN(C)C)C(=O)Nc1ccccc1 (stereo not drawn); inactive
CC(=O)OC1CC2(c3ccccc3)C(=O)c3ccccc3N2O1 (stereo not drawn); inactive
O=C1C(=O)N(c2ccc(Cl)cc2)C(=O)C(=O)C1c1nc2ccccc2s1; inactive
N#CC(C(=O)/C(=N\Nc1nc(S)nn1N)C(C#N)c1ccc(Cl)cc1)c1ccc(Cl)cc1 (stereo not drawn); inactive
Cc1c2cc[n+](CCN3CCCCC3)cc2c(C)c2c1[nH]c1ccc(O)cc12; inactive
CCOP(=O)(OCC)OC(C#N)c1ccc(-c2ccccc2)cc1 (stereo not drawn); inactive
N#Cc1cc([N+](=O)[O-])ccc1NC(=O)C(=O)C(C(=O)/C=C/c1ccccc1)C1OC(=O)c2ccccc21 (stereo not drawn); inactive
N#CC1C2CCC3(CC2CCN1C(=O)c1ccccc1)OCCO3 (stereo not drawn); inactive
Cc1ccc(S(=O)(=O)N[C@H](C(=O)O)c2ccccc2)cc1; inactive
NC(=S)N/N=C(\C(=O)Nc1ccc(Cl)c(Cl)c1)C1=NN(c2ccccc2)C(c2cccc([N+](=O)[O-])c2)CC1=O (stereo not drawn); inactive

Qu. Tell me the assay call for `COc1cccc2[s+]snc12` please.
Ans. inactive

Qu. Per the records of this test, what outcome belongs to `COCCN1C2=CCCCC2=Nc2c1nc(N)[nH]c2=O` ?
Ans. inactive

Qu. Record request — test call for NC(=O)NC1C(C(N)=O)N(Cc2ccccc2)C(=O)N1Cc1ccccc1 (stereo not drawn)
Ans. inactive

Sourced from ChEMBL document CHEMBL1201862
